compounds and their reported melting point

>  <compound>
CCOc1c(C(=O)c2cccs2)cnc2[nH]ncc12

>  <assay metric>
melting point

>  <value>
202 to 205 °C

$$$$

Problem: Name the reported melting point value associated with the compound O=C1CCC(c2ccc(-c3ccc(Cl)c(Cl)c3)o2)O1 (stereo unspecified)
Result: 89 to 90 °C

Problem: Try the compound COc1ccc(NC(=O)c2nnn(Cc3ccc(F)cc3)c2C)cc1OC
Result: 120 °C

====

compounds and their reported melting point

See these solved cases before continuing.
>  <compound>
N#Cc1ccc(NCCO)c([N+](=O)[O-])c1

>  <value>
132 to 134 °C

$$$$
>  <compound>
COC(=O)C(Cc1ccc(C#N)cc1)C(=O)c1ccc(C#N)cc1 (centres undefined)

>  <value>
154 to 157 °C

$$$$

Problem: Name the reported melting point value associated with the compound COc1cc(OC)cc(N2CCN(C(=O)Nc3cc4ccccc4nc3OC)CC2)c1
Result: 200 to 201 °C

Problem: Try the compound C=CCN(c1ccccc1)c1ncc(C(C)C(=O)O)s1 (centres undefined)
Result: 134 to 135 °C

Problem: Try the compound C=C=Cn1c(=O)sc2cc(F)c(-n3c(=O)cc(C)n(C)c3=O)cc21
Result: > 250 °C

Problem: Try the compound COc1ccc(C2Sc3c(Cl)cccc3N(CCN(C)C)C(=O)C2O)cc1 (centres undefined)
Result: 143 to 144 °C

Problem: Try the compound COCCCCC(=O)c1cc(C(=O)O)c2cc(Cc3ccc(F)cc3)cnc2c1O
Result: 216 to 218 °C

Problem: Try the compound CC(C)=Cn1ncc(OCc2ccc(I)nc2)c(Cl)c1=O
Result: 141 to 142 °C

Problem: Try the compound COc1ccc(C(=CC(=O)N2CCOCC2)c2ccc(O)cc2)cc1OC
Result: 105 to 120 °C

====

assay metric: melting point

>  <compound>
OC[C@@H](O)CCc1ccccc1

>  <value>
34 to 36 °C

$$$$

Problem: Name the reported melting point value associated with the compound O=C(NC1=NN(c2ccccc2)C(c2ccccc2)C1)C(F)(F)F (stereo not given)
Result: 152 to 154 °C

Problem: Try the compound CC(C)(C)OC(=O)Nc1cc(C(F)(F)F)ccc1-c1cc(Oc2ccc3cccnc3c2)ncn1
Result: 159 to 162 °C

Problem: Try the compound CCCCOC(=O)COc1cc(F)c([N+](=O)[O-])cc1[N+](=O)[O-]
Result: 113 to 115 °C

Problem: Try the compound COc1ccc(C=C2CCN(C(=O)OCc3ccccc3)CC2)cc1[N+](=O)[O-]
Result: 107 to 108 °C

Problem: Try the compound CC(C)Oc1cccc2oc(C(=O)O)cc12
Result: 148 to 150 °C

Problem: Try the compound CCOC(=O)c1cnc2cc(OC)c(OC)cc2c1Cl
Result: 147 to 150 °C

Problem: Try the compound Cc1cc(C2=CCC(c3ccc(OCC4CO4)cc3)CC2)ccc1OCC1CO1 (stereo not given)
Result: 117 °C

Problem: Try the compound Cc1ccc(S(=O)(=O)Nc2cc(C(C)C)c([N+](=O)[O-])cc2Br)cc1
Result: 132 °C

Problem: Try the compound CC(C)(C)OC(=O)N1CCC(c2cc(F)ccc2F)(S(=O)(=O)c2ccc(Cl)cc2)CC1
Result: 101 to 106 °C

====

assay metric: melting point

See these solved cases before continuing.
>  <molecule>
Nc1c(-c2cc(Cl)ccc2O)c2cc(Cl)c(C(F)(F)F)cc2[nH]c1=O

>  <melting point>
245 to 246 °C

$$$$
>  <molecule>
COc1cc(N2CCOCC2)ccc1Nc1nc(Nc2ccc3c(c2)CCC(=O)CC3)ncc1Cl

>  <melting point>
212 to 215 °C

$$$$
>  <molecule>
COC(=O)C[C@H]1C[C@H](C(=O)O)Nc2cc(Cl)cc(Cl)c21 (relative stereo)

>  <melting point>
181 to 182 °C

$$$$
>  <molecule>
O=c1c(C2CC2)c(N2CCC(c3ccccc3)CC2)ccn1CC1CC1

>  <melting point>
202 °C

$$$$

API: the following record is the query input.
Problem: Name the reported melting point value associated with the molecule O=C(O)Cc1cc(Cc2nc3c(F)c(F)cc(F)c3s2)cc(C(=O)O)c1
Result: 203 to 205 °C

====

assay metric: melting point

See these solved cases before continuing.
>  <molecule>
Cc1ccn(-c2cncc(F)c2)n1

>  <melting point>
70 to 72 °C

$$$$
>  <molecule>
Cc1cc2occc2cn1

>  <melting point>
55 to 56 °C

$$$$
>  <molecule>
CC(C)(C)NC(=O)N1CCN(Cc2ccccc2)C[C@@H]1C(=O)NCCc1cncn1Cc1ccc(C#N)cc1

>  <melting point>
97.8 °C

$$$$

Problem: Name the reported melting point value associated with the molecule c1ccc(C(c2ccccc2)(c2ccccc2)N2CCc3sccc3C2)cc1
Result: 95 °C

Problem: Try the molecule CN(C)C(=O)C1CCCc2c1c1ccccc1n2Cc1ccccc1 (stereo unspecified)
Result: 208 to 210 °C

Problem: Try the molecule CC(=O)NCCSc1c(Cl)cc([N+](=O)[O-])c(C)c1[N+](=O)[O-]
Result: 152 °C

====

compounds and their reported melting point

>  <compound>
CCCC(CC(CC)SC)CC1OC(n2cnc3c(N)ncnc32)C(O)C1O (stereo not given)

>  <value>
78 to 80 °C

$$$$
>  <compound>
COc1ccc(-c2nnn(-c3ccc(F)cc3Cl)c2N)cc1

>  <value>
136 to 141 °C

$$$$
>  <compound>
CC(OC(=O)NCC1(CC(=O)O)CCCCC1)OC(=O)C(C)C (stereo not given)

>  <value>
63 to 64 °C

$$$$
>  <compound>
CCCCc1nc(Cl)c(COCc2ccccc2C(=O)O)n1Cc1ccc(-c2ccccc2-c2nnn[nH]2)cc1

>  <value>
109 to 111 °C

$$$$
>  <compound>
COc1cccc([C@@H]2CC[C@H](c3cccc(O)c3)N2C(=O)CNC(=O)Nc2cccc(C(=O)O)c2)c1 (relative stereo)

>  <value>
172 °C

$$$$
>  <compound>
COc1nc2cc(Cl)cc(C#CCO)c2nc1OC

>  <value>
137 to 140 °C

$$$$

Problem: Name the reported melting point value associated with the compound Clc1csc(-c2nc(COc3ccc(CCCn4ccnc4)cc3)co2)c1
Result: 69 to 70 °C

Problem: Try the compound O=C(CCN1CCN(c2cnc3ccccc3c2)CC1)c1csc2ccccc12
Result: 112 to 114 °C

Problem: Try the compound CCS(=O)(=O)c1ccc2c(c1)nc(CC(C)(C)C)n2CC1CCCO1 (stereo not given)
Result: 142 °C

Problem: Try the compound CN1CCc2c(sc3ncn(CCO)c(=O)c23)C1
Result: 163 to 165 °C

Problem: Try the compound NC1CCn2c1nc1cc(NC(=O)c3cc4cc(F)ccc4n3Cc3cccc(F)c3)cnc12 (stereo not given)
Result: 218 to 220 °C

Problem: Try the compound COc1ccc(C(=O)Sc2ccccn2)cc1
Result: 73 °C

Problem: Try the compound CCOCc1cc(OC)c(-c2ccc(C[C@H](NC(=O)c3c(F)cccc3F)C(=O)O)cc2)c(OC)c1
Result: 154 to 155 °C

Problem: Try the compound CC(=O)c1nc2c(OCc3ccccc3)cccc2n1C
Result: 102 to 104 °C

Problem: Try the compound CS(=O)c1ccc(-c2nc(-c3ccc(F)cc3)c(-c3ccncc3)[nH]2)cc1 (stereo not given)
Result: 250 to 252 °C

Problem: Try the compound FC(F)(F)c1cccc(-c2c[nH]c(C3CCN(c4ncnc5[nH]ncc45)CC3)n2)c1
Result: 281 °C

Problem: Try the compound CCOCc1nc2c(N)nc(C)c(C)c2n1NC(C)C
Result: 110 to 120 °C

Problem: Try the compound OCc1cn(-c2ccc(SC(F)(F)F)c(Cl)c2)cn1
Result: 105 to 106 °C

Problem: Try the compound O=C(NC(O)C(=O)O)c1c(F)cccc1F (stereo not given)
Result: 125 to 127 °C

Problem: Try the compound CN1C(=O)Cn2c(CCl)nnc2-c2cc(Cl)ccc21
Result: 193 to 194 °C

====

compounds and their reported melting point

See these solved cases before continuing.
>  <compound>
CCOC(=O)c1c(-c2ccc(F)cc2)cc(-c2cccs2)nc1C(C)C

>  <melting point>
114 to 115 °C

$$$$
>  <compound>
CCCC(=O)N1CCc2nc3ccccc3c(C)c2CC1

>  <melting point>
130 °C

$$$$
>  <compound>
Cc1ncccc1Oc1ccc(NC(=O)C=Cc2ccccc2Cl)cn1

>  <melting point>
187 to 189 °C

$$$$
>  <compound>
O=c1[nH]c2cc(Cl)ccc2cc1-c1ccc(O)cc1

>  <melting point>
262 °C

$$$$
>  <compound>
Nc1ccc(Nc2c(NCc3ccccc3)cc(C(=O)O)cc2S(N)(=O)=O)cc1

>  <melting point>
244 °C

$$$$

API: the following record is the query input.
Problem: Name the reported melting point value associated with the compound C=C(c1ccccc1)c1ccc(N)c(N)c1
Result: 109 to 110 °C
